Test system: p16-3MR mice
experiment-summary: RT-qPCR verification of serum circulating microRNA changes, one-way ANOVA
Format: in vivo, mouse
measurement-context: serum, DOX/GCV compared to DOX
attribute-measured: One-way ANOVA Senolytic Treatment (DOX/GCV)

Some substances with known One-way ANOVA Senolytic Treatment (DOX/GCV) results, for comparison:
substance: miR-125a-5p: circulating microRNA biomarker, SEQ ID No. 90 (UCCCUGAGACCCUUUAACCUGUGA; expressed or natural sequence; listed as Homo sapiens)
reading: * (significant p < 0.05)

substance: miR-34a-5p: circulating microRNA biomarker, SEQ ID No. 1 (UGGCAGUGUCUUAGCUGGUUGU; expressed or natural sequence; listed as Homo sapiens)
reading: ○

substance: miR-409-3p: circulating microRNA biomarker, SEQ ID No. 89 (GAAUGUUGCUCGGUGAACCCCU; expressed or natural sequence; listed as Homo sapiens)
reading: * (significant p < 0.05)

substance: miR-34a-3p: circulating microRNA biomarker, SEQ ID No. 59 (CAAUCAGCAAGUAUACUGCCCU; expressed or natural sequence; listed as Homo sapiens)
reading: ○

Return reported One-way ANOVA Senolytic Treatment (DOX/GCV) values for all items listed beneath this line.
1. miR-24-3p: circulating microRNA biomarker, SEQ ID No. 21 (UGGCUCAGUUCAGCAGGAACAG; expressed or natural sequence; listed as Homo sapiens)
2. miR-31-5p: circulating microRNA biomarker, SEQ ID No. 87 (AGGCAAGAUGCUGGCAUAGCU; expressed or natural sequence; listed as Homo sapiens)
3. miR-345-5p: circulating microRNA biomarker, SEQ ID No. 83 (GCUGACUCCUAGUCCAGGGCUC; expressed or natural sequence; listed as Homo sapiens)
4. miR-27a-3p: circulating microRNA biomarker, SEQ ID No. 5 (UUCACAGUGGCUAAGUUCCGC; expressed or natural sequence; listed as Homo sapiens)

["* (significant p < 0.05)", "○", "* (significant p < 0.05)", "* (significant p < 0.05)"]
